molecular target: Pantothenate synthetase (Mycobacterium tuberculosis (strain ATCC 25618 / H37Rv)) (UniProt P9WIL5); assay: Coupled enzyme confirmation of inhibitors against recombinant Mtb PanC (AID 375); settings: coupled enzyme assay; at 10 µM, stronger effect = higher value
Sequence (P9WIL5 whole entry, looked up): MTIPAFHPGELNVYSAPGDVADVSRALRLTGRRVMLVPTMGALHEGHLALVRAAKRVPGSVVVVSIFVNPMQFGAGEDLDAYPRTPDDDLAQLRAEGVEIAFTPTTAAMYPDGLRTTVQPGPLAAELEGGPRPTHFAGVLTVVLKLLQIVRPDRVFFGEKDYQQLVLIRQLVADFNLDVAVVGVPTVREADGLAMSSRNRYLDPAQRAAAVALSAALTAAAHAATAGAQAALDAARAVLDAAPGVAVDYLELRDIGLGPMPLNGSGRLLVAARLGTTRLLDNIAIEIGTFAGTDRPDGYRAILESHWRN
Quick rule: inhibition of at least 2% means Criterion met, below that means Criterion not met.

Example cases with answers are listed next.
> print(dat)
                                   compound     assigned.label
1  CCOC(=O)Nc1ccc2c(c1)N(C(=O)OCCN(C)C)c1ccccc1CC2      Criterion met
2  COC(=O)c1ccccc1NC(=O)CN1CCC(n2nnc3cc(F)ccc32)CC1  Criterion not met
3  CCOc1ccc(N(CC(=O)NCc2ccco2)S(=O)(=O)c2ccc(OC)c(OC)c2)cc1  Criterion not met
4  COc1cc(S(=O)(=O)NC2CCCCC2C)ccc1Cl (centres undefined)  Criterion not met
5    COc1ccc(Cl)cc1NC(=O)CSc1nncn1-c1cccnc1      Criterion met

// inclusive: inhibition at least 2%? input: "CC(=O)Nc1cccc(Oc2nc(C)cc(C)c2C#N)c1"
Criterion not met

// inclusive: inhibition at least 2%? input: CC1CCC(C(=O)NC(C(=O)N2CCC3(CC2)OCCO3)C(C)C)CC1 (centres undefined)
Criterion met

// inclusive: inhibition at least 2%? input: "NC(=O)C1CCN(c2nc(-c3ccccc3)nc3ccccc23)CC1"
Criterion not met

// inclusive: inhibition at least 2%? input: "Clc1ccccc1-c1nnc2sc(-c3ccccn3)nn12"
Criterion not met

// inclusive: inhibition at least 2%? input: "CN(c1ccccc1)S(=O)(=O)c1ccc(C(=O)OCC(=O)N2CCOCC2)cc1"
Criterion met

// inclusive: inhibition at least 2%? input: "NS(=O)(=O)c1cc2c(cc1Cl)NC(CSCc1ccccc1)=NS2(=O)=O"
Criterion not met

// inclusive: inhibition at least 2%? input: "COc1ccccc1NC(=O)Cc1noc(CSc2cc(C)c3ccccc3n2)n1"
Criterion not met
